Measured Kb accompanies every entry in the list below.
- system.name: LHRH receptor (Rattus norvegicus, UniProt P30969)
- Construct: endogenous in cells
- protocol.notes: in vitro LHRH antagonist potency (pA2) against the agonist leuprolide
- Format: cell-based
- condition.details: negative logarithm of the antagonist concentration which shifts the response curve produced by the agonist leuprolide to two-fold higher concentration
Where a SMILES comes first, the peptide text is derived from it. Side-chain parts run from the residue outwards. [ ]: non-standard residue; d: D form. The star is where a group is joined. Shikimoyl = O=C(C1=C[C@@H](O)[C@@H](O)[C@H](O)C1)*; dPhe(4-Cl) = N[C@H](Cc1ccc(Cl)cc1)C(=O)O; d2Nal = N[C@H](Cc1ccc2ccccc2c1)C(=O)O; Lys(iPr) = CC(C)NCCCC[C@H](N)C(=O)O; NMeY = CN[C@@H](Cc1ccc(O)cc1)C(=O)O; d3Pal = N[C@H](Cc1cccnc1)C(=O)O; Nicotinoyl = O=C(c1cccnc1)*; dOrn = NCCC[C@@H](N)C(=O)O
property: Kb (nM)

molecule="CC(=O)N[C@H](Cc1ccc2ccccc2c1)C(=O)N[C@H](Cc1ccc(Cl)cc1)C(=O)N[C@H](Cc1cccnc1)C(=O)N[C@@H](CO)C(=O)N(C)[C@@H](Cc1ccc(O)cc1)C(=O)N[C@H](CCCCNC(=O)[C@@H](Cc1c[nH]cn1)NC(=O)C1=C[C@@H](O)[C@@H](O)[C@H](O)C1)C(=O)N[C@@H](CC(C)C)C(=O)N[C@@H](CCCNC(=N)N)C(=O)N1CCC[C@H]1C(=O)N[C@H](C)C(N)=O [Example 48h] (Ac-[d2Nal][dPhe(4-Cl)][d3Pal]S[NMeY][dK]([dH-Shikimoyl])LRP[dA]-NH2)" quantity_unit=nM reported=0.038
molecule="CC(=O)N[C@H](Cc1ccc2ccccc2c1)C(=O)N[C@H](Cc1ccc(Cl)cc1)C(=O)N[C@H](Cc1cccnc1)C(=O)N[C@@H](CO)C(=O)N(C)[C@@H](Cc1ccc(O)cc1)C(=O)N[C@H](CCCNC(=O)CNC(=O)c1cccnc1)C(=O)N[C@@H](CC(C)C)C(=O)N[C@@H](CCCCNC(C)C)C(=O)N1CCC[C@H]1C(=O)N[C@H](C)C(N)=O [Example 54] (Ac-[d2Nal][dPhe(4-Cl)][d3Pal]S[NMeY][dOrn]([Gly-Nicotinoyl])L[Lys(iPr)]P[dA]-NH2)" quantity_unit=nM reported=0.0302

###

- system.name: LHRH receptor (Rattus norvegicus)
- Construct: endogenous in cells
- Sequence (P30969 1-327): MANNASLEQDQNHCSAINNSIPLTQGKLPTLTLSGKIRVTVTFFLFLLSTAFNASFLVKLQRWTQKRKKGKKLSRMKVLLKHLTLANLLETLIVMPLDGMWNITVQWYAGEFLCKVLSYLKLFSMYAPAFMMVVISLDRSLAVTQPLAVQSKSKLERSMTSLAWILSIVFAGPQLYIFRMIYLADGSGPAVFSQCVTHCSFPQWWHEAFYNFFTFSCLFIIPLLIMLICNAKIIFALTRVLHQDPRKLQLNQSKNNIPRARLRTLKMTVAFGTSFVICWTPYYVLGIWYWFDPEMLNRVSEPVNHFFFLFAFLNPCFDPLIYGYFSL
- protocol.notes: in vitro LHRH antagonist potency (pA2) against the agonist leuprolide
- Assay type: cell-based
- condition.details: negative logarithm of the antagonist concentration which shifts the response curve produced by the agonist leuprolide to two-fold higher concentration
*1 amine or outer side, *2 acyl side, *3 side chain or, on linkers, in order; H or OH if unused. Where a SMILES comes first, the peptide text is derived from it. Side-chain parts run from the residue outwards. [ ]: non-standard residue; d: D form. The star is where a group is joined. Shikimoyl = O=C(C1=C[C@@H](O)[C@@H](O)[C@H](O)C1)*; dPhe(4-Cl) = N[C@H](Cc1ccc(Cl)cc1)C(=O)O; d2Nal = N[C@H](Cc1ccc2ccccc2c1)C(=O)O; Acetyl(3-pyridyl) = O=C(Cc1cccnc1)*; Lys(iPr) = CC(C)NCCCC[C@H](N)C(=O)O; NMeY = CN[C@@H](Cc1ccc(O)cc1)C(=O)O; Ethylenediamine = C(CN[*:2])N[*:1]; d3Pal = N[C@H](Cc1cccnc1)C(=O)O; Nicotinoyl = O=C(c1cccnc1)*; dOrn = NCCC[C@@H](N)C(=O)O; 2Furoyl = O=C(c1ccco1)*; CO = O=C([*:1])[*:2]; azaGly = NNC(=O)O; βAla = NCCC(=O)O; Sar = CNCC(=O)O
Measured log10 of Kb accompanies every entry in the list below.
property: log10 of Kb (log10 of the value in pM)

compound="CC(=O)N[C@H](Cc1ccc2ccccc2c1)C(=O)N[C@H](Cc1ccc(Cl)cc1)C(=O)N[C@H](Cc1cccnc1)C(=O)N[C@@H](CO)C(=O)N(C)[C@@H](Cc1ccc(O)cc1)C(=O)N[C@H](CCCNC(=O)CNC(=O)c1cccnc1)C(=O)N[C@@H](CC(C)C)C(=O)N[C@@H](CCCNC(=N)N)C(=O)N1CCC[C@H]1C(=O)N[C@H](C)C(N)=O [Example 49a] (Ac-[d2Nal][dPhe(4-Cl)][d3Pal]S[NMeY][dOrn]([Gly-Nicotinoyl])LRP[dA]-NH2)" reported=1.19
compound="CC(=O)N[C@H](Cc1ccc2ccccc2c1)C(=O)N[C@H](Cc1ccc(Cl)cc1)C(=O)N[C@H](Cc1cccnc1)C(=O)N[C@@H](CO)C(=O)N(C)[C@@H](Cc1ccc(O)cc1)C(=O)N[C@H](CCCCNC(=O)CCNC(=O)CNC(=O)c1ccco1)C(=O)N[C@@H](CC(C)C)C(=O)N[C@@H](CCCCNC(C)C)C(=O)N1CCC[C@H]1C(=O)N[C@H](C)C(N)=O [Example 57c] (Ac-[d2Nal][dPhe(4-Cl)][d3Pal]S[NMeY][dK]([βAla-Gly-2Furoyl])L[Lys(iPr)]P[dA]-NH2)" reported=1.27
compound="CC(=O)N[C@H](Cc1ccc2ccccc2c1)C(=O)N[C@H](Cc1ccc(Cl)cc1)C(=O)N[C@H](Cc1cccnc1)C(=O)N[C@@H](CO)C(=O)N(C)[C@@H](Cc1ccc(O)cc1)C(=O)N[C@H](CCCCNC(=O)[C@@H](CO)NC(=O)c1cccnc1)C(=O)N[C@@H](CC(C)C)C(=O)N[C@@H](CCCNC(=N)N)C(=O)N1CCC[C@H]1C(=O)N[C@H](C)C(N)=O [Example 7] (Ac-[d2Nal][dPhe(4-Cl)][d3Pal]S[NMeY][dK]([dS-Nicotinoyl])LRP[dA]-NH2)" reported=0.95
compound="CC(=O)N[C@H](Cc1ccc2ccccc2c1)C(=O)N[C@H](Cc1ccc(Cl)cc1)C(=O)N[C@H](Cc1cccnc1)C(=O)N[C@@H](CO)C(=O)N(C)[C@@H](Cc1ccc(O)cc1)C(=O)N[C@H](CCCCNC(=O)NCCNC(=O)c1cccnc1)C(=O)N[C@@H](CC(C)C)C(=O)N[C@@H](CCCNC(=N)N)C(=O)N1CCC[C@H]1C(=O)N[C@H](C)C(N)=O [Example 14] (Ac-[d2Nal][dPhe(4-Cl)][d3Pal]S[NMeY][dK]([CO-Ethylenediamine-Nicotinoyl])LRP[dA]-NH2)" reported=2.22
compound="CC(=O)N[C@H](Cc1ccc2ccccc2c1)C(=O)N[C@H](Cc1ccc(Cl)cc1)C(=O)N[C@H](Cc1cccnc1)C(=O)N[C@@H](CO)C(=O)N(C)[C@@H](Cc1ccc(O)cc1)C(=O)N[C@H](CCCCNC(=O)NNC(=O)c1cccnc1)C(=O)N[C@@H](CC(C)C)C(=O)N[C@@H](CCCCNC(C)C)C(=O)N1CCC[C@H]1C(=O)N(C)CC(N)=O [Example 60] (Ac-[d2Nal][dPhe(4-Cl)][d3Pal]S[NMeY][dK]([azaGly-Nicotinoyl])L[Lys(iPr)]P[Sar]-NH2)" reported=1.45
compound="CC(=O)N[C@H](Cc1ccc2ccccc2c1)C(=O)N[C@H](Cc1ccc(Cl)cc1)C(=O)N[C@H](Cc1cccnc1)C(=O)N[C@@H](CO)C(=O)N(C)[C@@H](Cc1ccc(O)cc1)C(=O)N[C@H](CCCCNC(=O)CNC(=O)Cc1cccnc1)C(=O)N[C@@H](CC(C)C)C(=O)N[C@@H](CCCNC(=N)N)C(=O)N1CCC[C@H]1C(=O)N[C@H](C)C(N)=O [Example 65c] (Ac-[d2Nal][dPhe(4-Cl)][d3Pal]S[NMeY][dK]([Gly-Acetyl(3-pyridyl)])LRP[dA]-NH2)" reported=1.46
compound="CC(=O)N[C@H](Cc1ccc2ccccc2c1)C(=O)N[C@H](Cc1ccc(Cl)cc1)C(=O)N[C@H](Cc1cccnc1)C(=O)N[C@@H](CO)C(=O)N(C)[C@@H](Cc1ccc(O)cc1)C(=O)N[C@H](CCCNC(=O)[C@@H](CO)NC(=O)C1=C[C@@H](O)[C@@H](O)[C@H](O)C1)C(=O)N[C@@H](CC(C)C)C(=O)N[C@@H](CCCNC(=N)N)C(=O)N1CCC[C@H]1C(=O)N[C@H](C)C(N)=O [Example 49d] (Ac-[d2Nal][dPhe(4-Cl)][d3Pal]S[NMeY][dOrn]([dS-Shikimoyl])LRP[dA]-NH2)" reported=0.22
compound="CC(=O)N[C@H](Cc1ccc2ccccc2c1)C(=O)N[C@H](Cc1ccc(Cl)cc1)C(=O)N[C@H](Cc1cccnc1)C(=O)N[C@@H](CO)C(=O)N(C)[C@@H](Cc1ccc(O)cc1)C(=O)N[C@H](CCCCNC(=O)NNC(=O)c1ccco1)C(=O)N[C@@H](CC(C)C)C(=O)N[C@@H](CCCCNC(C)C)C(=O)N1CCC[C@H]1C(=O)N(C)CC(N)=O [Example 59] (Ac-[d2Nal][dPhe(4-Cl)][d3Pal]S[NMeY][dK]([azaGly-2Furoyl])L[Lys(iPr)]P[Sar]-NH2)" reported=1.56
compound="CC(=O)N[C@H](Cc1ccc2ccccc2c1)C(=O)N[C@H](Cc1ccc(Cl)cc1)C(=O)N[C@H](Cc1cccnc1)C(=O)N[C@@H](CO)C(=O)N(C)[C@@H](Cc1ccc(O)cc1)C(=O)N[C@H](CCCCNC(=O)CCNC(=O)NNC(=O)c1cccnc1)C(=O)N[C@@H](CC(C)C)C(=O)N[C@@H](CCCCNC(C)C)C(=O)N1CCC[C@H]1C(=O)N[C@H](C)C(N)=O [Example 25a] (Ac-[d2Nal][dPhe(4-Cl)][d3Pal]S[NMeY][dK]([βAla-azaGly-Nicotinoyl])L[Lys(iPr)]P[dA]-NH2)" reported=1.56
